- Target or system: recombinant IL4I1 (Homo sapiens)
- Sequence (Q96RQ9 22-567): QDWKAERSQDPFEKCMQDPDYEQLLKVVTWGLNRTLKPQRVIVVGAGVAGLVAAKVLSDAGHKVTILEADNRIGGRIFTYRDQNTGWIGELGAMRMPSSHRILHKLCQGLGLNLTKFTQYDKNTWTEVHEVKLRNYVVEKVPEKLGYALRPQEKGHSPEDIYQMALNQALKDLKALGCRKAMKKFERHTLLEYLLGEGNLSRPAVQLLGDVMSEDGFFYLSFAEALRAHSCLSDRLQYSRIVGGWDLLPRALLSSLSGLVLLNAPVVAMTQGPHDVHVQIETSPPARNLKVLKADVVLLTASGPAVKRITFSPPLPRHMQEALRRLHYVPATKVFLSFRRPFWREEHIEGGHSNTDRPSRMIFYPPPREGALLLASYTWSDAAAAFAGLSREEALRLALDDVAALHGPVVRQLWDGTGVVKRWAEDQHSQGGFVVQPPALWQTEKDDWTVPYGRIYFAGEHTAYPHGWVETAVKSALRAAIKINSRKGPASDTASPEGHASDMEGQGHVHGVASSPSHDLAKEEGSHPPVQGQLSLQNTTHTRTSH
- Test: IL4I1 Enzymatic Assay (Amplex Red/HRP coupled detection of H2O2, fluorescence)
- Condition: 1 nM recombinant IL4I1; four-hour pre-incubation with compound; 1 mM each Phe, Tyr, Trp; ten-point titration
Recorded metric: EC50 (nM)
Number only, in nM; omit the unit.

>  <Compound>
Cc1ccc(-n2cc(C(=O)NC(C)c3nnc(-c4ccccc4)s3)nn2)c(C)n1 (single isomer, unassigned) [Example 263]

>  <Recorded metric>
EC50

>  <Scale unit>
nM

>  <Recorded value>
33

$$$$
>  <Compound>
O=C(NCc1nnc(-c2ccccc2)s1)c1c[nH]c(C2CC2)n1

>  <Recorded metric>
EC50

>  <Scale unit>
nM

>  <Recorded value>
265

$$$$
>  <Compound>
CC(C)(C(N)=O)n1cc(C(=O)NCc2nnc(-c3ccncc3)s2)nn1

>  <Recorded metric>
EC50

>  <Scale unit>
nM

>  <Recorded value>
27

$$$$

Proceeding to the next compound to report its EC50.
Please look up its EC50: CC(C)(Cn1cc(C(=O)NCc2nnc(-c3ccccc3)s2)nn1)C(N)=O
843

====

- Target or system: recombinant IL4I1 (Homo sapiens)
- Sequence (Q96RQ9 22-567): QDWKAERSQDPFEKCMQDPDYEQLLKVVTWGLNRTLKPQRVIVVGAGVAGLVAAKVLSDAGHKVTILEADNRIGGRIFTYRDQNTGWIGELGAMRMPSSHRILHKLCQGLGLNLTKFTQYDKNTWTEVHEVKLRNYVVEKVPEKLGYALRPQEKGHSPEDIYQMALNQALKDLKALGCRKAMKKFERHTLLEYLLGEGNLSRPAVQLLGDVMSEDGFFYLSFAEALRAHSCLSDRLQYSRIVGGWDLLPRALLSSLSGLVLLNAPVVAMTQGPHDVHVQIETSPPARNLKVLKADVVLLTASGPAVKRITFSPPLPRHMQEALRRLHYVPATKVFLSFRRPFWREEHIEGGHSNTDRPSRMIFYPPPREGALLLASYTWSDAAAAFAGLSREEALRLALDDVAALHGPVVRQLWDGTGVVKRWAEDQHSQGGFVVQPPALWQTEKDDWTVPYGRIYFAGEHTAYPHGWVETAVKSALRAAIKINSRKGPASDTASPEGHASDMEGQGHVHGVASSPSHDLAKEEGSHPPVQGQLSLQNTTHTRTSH
- Test: IL4I1 Enzymatic Assay (Amplex Red/HRP coupled detection of H2O2, fluorescence)
- Condition: 1 nM recombinant IL4I1; four-hour pre-incubation with compound; 1 mM each Phe, Tyr, Trp; ten-point titration
pEC50: −log10 of the molar value.
# binarize pEC50: threshold 7 inclusive, high side met, low side not met

Some solved cases for reference:
>  <Smiles data>
CC[C@@H](c1ccc(F)cc1)n1cc(C(=O)NCc2nnc(-c3ccccc3)s2)nn1

>  <Group label>
met

$$$$
>  <Smiles data>
O=C(NCc1nnc(-c2ccccc2)s1)c1cn(C[C@H](F)CO)nn1

>  <Group label>
met

$$$$
>  <Smiles data>
Cc1cc(C)c(C(=O)NCc2nnc(-c3ccccc3)s2)o1

>  <Group label>
not met

$$$$
>  <Smiles data>
O=C(NCc1nnc(-c2ccccc2)s1)c1cn(-c2cccnc2)nn1

>  <Group label>
not met

$$$$

Textbook exercise: given the entry Cc1ccc(-n2cc(C(=O)NCc3nnc(-c4ccsc4C)s3)nn2)c(C)n1 , state whether its pEC50 is greater than or equal to 7.
met
